test system: Pfeiffer; assay: Anti proliferative activity in haematological cancer cell lines (CellTiter Glo), Pfeiffer; type: cell-based; conditions: Homo sapiens, GCB-DLBCL, 72 hours incubation
Quantity measured: pIC50
Numbers only, as −log10 of the molar value.

[ask] Need pIC50, item C=CC(=O)N1CCN(C(=O)NC2(C#Cc3ccc(Cl)c(Cl)c3)CC2)CC1
[reply] 6.06

These measurements were taken from patent US20230414605A1.
